test system: KB tumor-bearing athymic nude mice; assay: Biodistribution of 177Lu-RedFols in KB tumor-bearing mice; assay type: in vivo, mouse; conditions: 4 h p.i.
Entries and their measured Spleen, accumulated activity follow.
// note: answer is a bare numeric in % IA/g

Below: 4 compounds and their reported Spleen, accumulated activity.
# compound, test-target, endpoint-unit, meas-value
measured = [
    ("CN1c2c(nc(N)[nH]c2=O)NC[C@H]1CNc1ccc(C(=O)N[C@@H](CCC(=O)N[C@@H](CCCCNC(=O)CN2CCN(CC(=O)O)CCN(CC(=O)O)CCN(CC(=O)O)CC2)C(=O)N[C@@H](CCCCNC(=O)c2ccc(CNC(=O)CCCCc3ccc(I)cc3)cc2)C(=O)O)C(=O)O)cc1 [[^177Lu]Lu-6R-RedFol-25, metal not drawn]", "KB tumor-bearing athymic nude mice", "% IA/g", 1.2),
    ("CN1c2c(nc(N)[nH]c2=O)NC[C@H]1CNc1ccc(C(=O)N[C@@H](CCC(=O)N[C@@H](CCCCNC(=O)CN2CCN(CC(=O)O)CCN(CC(=O)O)CCN(CC(=O)O)CC2)C(=O)N[C@@H](CCCCNC(=O)c2ccc(CNC(=O)CCCc3ccc(I)cc3)cc2)C(=O)O)C(=O)O)cc1 [[^177Lu]Lu-6R-RedFol-3, metal not drawn]", "KB tumor-bearing athymic nude mice", "% IA/g", 2.2),
    ("CN1c2c(nc(N)[nH]c2=O)NCC1CNc1ccc(C(=O)NC(CCC(=O)NC(CCCCNC(=O)CN2CCN(CC(=O)[O-])CCN(CC(=O)[O-])CCN(CC(=O)[O-])CC2)C(=O)NC(CCCCNC(=O)c2ccc(CNC(=O)CCCCc3ccc(I)cc3)cc2)C(=O)O)C(=O)O)cc1.[177Lu+3] (stereo not drawn) [[^177Lu]Lu-6S-RedFol-25]", "KB tumor-bearing athymic nude mice", "% IA/g", 1.3),
    ("CN1c2c(nc(N)[nH]c2=O)NCC1CNc1ccc(C(=O)NC(CCC(=O)NC(CCCCNC(=O)CN2CCN(CC(=O)[O-])CCN(CC(=O)[O-])CCN(CC(=O)[O-])CC2)C(=O)NC(CCCCNC(=O)c2ccc(CNC(=O)CCCc3ccc(I)cc3)cc2)C(=O)O)C(=O)O)cc1.[177Lu+3] (stereo not drawn) [[^177Lu]Lu-6S-RedFol-3]", "KB tumor-bearing athymic nude mice", "% IA/g", 1.7),
]

For the compound CN1c2c(nc(N)[nH]c2=O)NC[C@H]1CNc1ccc(C(=O)N[C@@H](CCC(=O)N[C@@H](CCCCNC(=O)CN2CCN(CC(=O)O)CCN(CC(=O)O)CCN(CC(=O)O)CC2)C(=O)N[C@@H](CCCCNC(=O)CCCCc2ccc(I)cc2)C(=O)O)C(=O)O)cc1 [[^177Lu]Lu-6R-RedFol-24, metal not drawn] , what Spleen, accumulated activity is on record? 0.83

###

test system: KB tumor-bearing athymic nude mice; experiment: Biodistribution of 177Lu-RedFols in KB tumor-bearing mice; assay type: in vivo, mouse; settings: 1 h p.i.
quantity: KB tumor, accumulated activity

# compound, KB tumor, accumulated activity
rows = [
    ("CN1c2c(nc(N)[nH]c2=O)NCC1CNc1ccc(C(=O)NC(CCC(=O)NC(CCCCNC(=O)CN2CCN(CC(=O)[O-])CCN(CC(=O)[O-])CCN(CC(=O)[O-])CC2)C(=O)NC(CCCCNC(=O)c2ccc(CNC(=O)CCCCc3ccc(I)cc3)cc2)C(=O)O)C(=O)O)cc1.[177Lu+3] (stereo not drawn) [[^177Lu]Lu-6S-RedFol-25]", "17 ± 2 % IA/g"),
    ("CN1c2c(nc(N)[nH]c2=O)NC[C@H]1CNc1ccc(C(=O)N[C@@H](CCC(=O)N[C@@H](CCCCNC(=O)CN2CCN(CC(=O)O)CCN(CC(=O)O)CCN(CC(=O)O)CC2)C(=O)N[C@@H](CCCCNC(=O)c2ccc(CNC(=O)CCCCc3ccc(I)cc3)cc2)C(=O)O)C(=O)O)cc1 [[^177Lu]Lu-6R-RedFol-25, metal not drawn]", "15 ± 1 % IA/g"),
    ("CN1c2c(nc(N)[nH]c2=O)NC[C@H]1CNc1ccc(C(=O)N[C@@H](CCC(=O)N[C@@H](CCCCNC(=O)CN2CCN(CC(=O)O)CCN(CC(=O)O)CCN(CC(=O)O)CC2)C(=O)N[C@@H](CCCCNC(=O)c2ccc(CNC(=O)CCCc3ccc(I)cc3)cc2)C(=O)O)C(=O)O)cc1 [[^177Lu]Lu-6R-RedFol-3, metal not drawn]", "8.5 ± 1.9 % IA/g"),
    ("CN1c2c(nc(N)[nH]c2=O)NCC1CNc1ccc(C(=O)NC(CCC(=O)NC(CCCCNC(=O)CN2CCN(CC(=O)[O-])CCN(CC(=O)[O-])CCN(CC(=O)[O-])CC2)C(=O)NC(CCCCNC(=O)c2ccc(CNC(=O)CCCc3ccc(I)cc3)cc2)C(=O)O)C(=O)O)cc1.[177Lu+3] (stereo not drawn) [[^177Lu]Lu-6S-RedFol-3]", "7.9 ± 1.2 % IA/g"),
]

Next, consider the following compound.
For the compound CN1c2c(nc(N)[nH]c2=O)NC[C@H]1CNc1ccc(C(=O)N[C@@H](CCC(=O)N[C@@H](CCCCNC(=O)CN2CCN(CC(=O)O)CCN(CC(=O)O)CCN(CC(=O)O)CC2)C(=O)N[C@@H](CCCCNC(=O)CCCCc2ccc(I)cc2)C(=O)O)C(=O)O)cc1 [[^177Lu]Lu-6R-RedFol-24, metal not drawn] , what KB tumor, accumulated activity is on record? 17 ± 2 % IA/g

###

test system: KB tumor-bearing athymic nude mice; test: Biodistribution of 177Lu-RedFols in KB tumor-bearing mice; assay type: in vivo, mouse; conditions: 24 h p.i.
Entries and their measured Lung, accumulated activity follow.
// note: answer is a bare numeric in % IA/g

# compound, endpoint-unit, meas-value
data = [
    ("CN1c2c(nc(N)[nH]c2=O)NCC1CNc1ccc(C(=O)NC(CCC(=O)NC(CCCCNC(=O)CN2CCN(CC(=O)[O-])CCN(CC(=O)[O-])CCN(CC(=O)[O-])CC2)C(=O)NC(CCCCNC(=O)c2ccc(CNC(=O)CCCCc3ccc(I)cc3)cc2)C(=O)O)C(=O)O)cc1.[177Lu+3] (stereo not drawn) [[^177Lu]Lu-6S-RedFol-25]", "% IA/g", 0.27),
]

Next, consider the following compound.
For the compound CN1c2c(nc(N)[nH]c2=O)NC[C@H]1CNc1ccc(C(=O)N[C@@H](CCC(=O)N[C@@H](CCCCNC(=O)CN2CCN(CC(=O)O)CCN(CC(=O)O)CCN(CC(=O)O)CC2)C(=O)N[C@@H](CCCCNC(=O)CCCCc2ccc(I)cc2)C(=O)O)C(=O)O)cc1 [[^177Lu]Lu-6R-RedFol-24, metal not drawn] , what Lung, accumulated activity is on record? 0.60

###

tested on: KB tumor-bearing athymic nude mice; assay: Biodistribution of 177Lu-RedFols in KB tumor-bearing mice; assay type: in vivo, mouse; settings: 24 h p.i.
quantity: KB tumor, accumulated activity (% IA/g)
// note: answer is a bare numeric in % IA/g

Below: 3 molecules and their reported KB tumor, accumulated activity.
# molecule, endpoint-unit, KB tumor, accumulated activity
rows = [
    ("CN1c2c(nc(N)[nH]c2=O)NCC1CNc1ccc(C(=O)NC(CCC(=O)NC(CCCCNC(=O)CN2CCN(CC(=O)[O-])CCN(CC(=O)[O-])CCN(CC(=O)[O-])CC2)C(=O)NC(CCCCNC(=O)c2ccc(CNC(=O)CCCc3ccc(I)cc3)cc2)C(=O)O)C(=O)O)cc1.[177Lu+3] (stereo not drawn) [[^177Lu]Lu-6S-RedFol-3]", "% IA/g", 41),
    ("CN1c2c(nc(N)[nH]c2=O)NCC1CNc1ccc(C(=O)NC(CCC(=O)NC(CCCCNC(=O)CN2CCN(CC(=O)[O-])CCN(CC(=O)[O-])CCN(CC(=O)[O-])CC2)C(=O)NC(CCCCNC(=O)c2ccc(CNC(=O)CCCCc3ccc(I)cc3)cc2)C(=O)O)C(=O)O)cc1.[177Lu+3] (stereo not drawn) [[^177Lu]Lu-6S-RedFol-25]", "% IA/g", 37),
    ("CN1c2c(nc(N)[nH]c2=O)NC[C@H]1CNc1ccc(C(=O)N[C@@H](CCC(=O)N[C@@H](CCCCNC(=O)CN2CCN(CC(=O)O)CCN(CC(=O)O)CCN(CC(=O)O)CC2)C(=O)N[C@@H](CCCCNC(=O)c2ccc(CNC(=O)CCCc3ccc(I)cc3)cc2)C(=O)O)C(=O)O)cc1 [[^177Lu]Lu-6R-RedFol-3, metal not drawn]", "% IA/g", 39),
]

For the molecule CN1c2c(nc(N)[nH]c2=O)NC[C@H]1CNc1ccc(C(=O)N[C@@H](CCC(=O)N[C@@H](CCCCNC(=O)CN2CCN(CC(=O)O)CCN(CC(=O)O)CCN(CC(=O)O)CC2)C(=O)N[C@@H](CCCCNC(=O)c2ccc(CNC(=O)CCCCc3ccc(I)cc3)cc2)C(=O)O)C(=O)O)cc1 [[^177Lu]Lu-6R-RedFol-25, metal not drawn] , what KB tumor, accumulated activity is on record? 34

For the molecule CN1c2c(nc(N)[nH]c2=O)NC[C@H]1CNc1ccc(C(=O)N[C@@H](CCC(=O)N[C@@H](CCCCNC(=O)CN2CCN(CC(=O)O)CCN(CC(=O)O)CCN(CC(=O)O)CC2)C(=O)N[C@@H](CCCCNC(=O)CCCCc2ccc(I)cc2)C(=O)O)C(=O)O)cc1 [[^177Lu]Lu-6R-RedFol-24, metal not drawn] , what KB tumor, accumulated activity is on record? 33
